# melting point listing for each entry below

compound | melting point
CCOC(=O)c1scnc1Cl | 43 to 45 °C
NS(=O)(=O)c1cc2c(s1)CNCC2 | 172 to 175 °C
CCCCCCCCCCc1nnn[nH]1 | 57 to 59 °C
NC1=NN(c2nc3ccccc3s2)CC1 | 232 to 235 °C
Oc1ccc2c(c1)CCC(CNCC(O)c1ccc(Cl)cc1)C2 (stereo not given) | 150 to 153 °C

Consider the compound NC(=O)NCc1cc2cc(CN3CCOCC3)cc3c(=O)c(C(=O)NCc4ccc(Cl)cc4)cn1c23 and give its measured melting point.
250 to 252 °C

Consider the compound O=C1Oc2ccc(Br)cc2C1c1ccc(Cl)cc1Cl (stereo not given) and give its measured melting point.
149 to 150 °C

Consider the compound CNC1N=CN(c2c(Cl)cccc2Cl)C(=O)N1 (stereo not given) and give its measured melting point.
270 °C

Consider the compound Cc1ncn(-c2nccc3[nH]c(=O)ccc23)c1C and give its measured melting point.
256 to 258 °C

Consider the compound CCCCCCCCCCCC1CC(=O)C(CCCCCC)C(=O)O1 (stereo not given) and give its measured melting point.
112 to 114 °C
